method_description: reduction of polyQ htt aggregates in cells – imaging, exon1htt(103Q)mCFP cells, high-content imaging, primary screen (AID 483);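 also: compound exposure lasted 3 days before fixation; percent of the per-plate median nuclei count of sample wells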
particulars: exon1htt(103Q)mCFP cell line, aggregate imaging, at 2 µM; measured here: cell count, toxicity
Answer each item with its documented nuclei count.
Field: numeric (%). Do not append units.

Given item `O=C(CCn1c(=O)oc2ccccc21)N1CCCCCC1` , the value recorded as its nuclei count is 123

Given item Cc1cccc(-n2nc3c(c2NC(=O)CCC2CCCCC2)CS(=O)C3)c1C (stereo unspecified) , the value recorded as its nuclei count is 80

Given item `Cc1nn(-c2ccc(Cl)cc2)c2sc(C(=O)N3CCN(c4ccccn4)CC3)cc12` , the value recorded as its nuclei count is 95.6

Given item `CCCn1c(SCC(=O)N2CCN(c3ccccc3)CC2)nc2ccccc2c1=O` , the value recorded as its nuclei count is 101

Given item `N#Cc1ccc(CSc2nnc(-c3cccs3)n2-c2ccccc2)cc1` , the value recorded as its nuclei count is 99.1

Given item `Cc1c(NC(=O)c2noc3c2CCc2ccccc2-3)c(=O)n(-c2ccccc2)n1C` , the value recorded as its nuclei count is 110

Given item CCCNC(=O)NC1C(NC(=O)NCCC)N(C)C(=O)N1C (stereo unspecified) , the value recorded as its nuclei count is 98.1

Given item `COc1ccc(C(=O)Nc2nncs2)c(OC)c1` , the value recorded as its nuclei count is 27

Given item `CN=Cc1cc(-c2ccccc2)sc1O` , the value recorded as its nuclei count is 126

Given item COC(=O)c1ccc2c(=O)n(CC3CCCO3)c(=S)[nH]c2c1 (stereo unspecified) , the value recorded as its nuclei count is 92.8

Given item `C=CCOc1nc2c(c(=O)n(C)c(=O)n2C)n1C` , the value recorded as its nuclei count is 113

---

target: Voltage-gated potassium channel subunit beta-2 (Rattus norvegicus) (UniProt P62483)
Sequence (P62483 whole entry, looked up): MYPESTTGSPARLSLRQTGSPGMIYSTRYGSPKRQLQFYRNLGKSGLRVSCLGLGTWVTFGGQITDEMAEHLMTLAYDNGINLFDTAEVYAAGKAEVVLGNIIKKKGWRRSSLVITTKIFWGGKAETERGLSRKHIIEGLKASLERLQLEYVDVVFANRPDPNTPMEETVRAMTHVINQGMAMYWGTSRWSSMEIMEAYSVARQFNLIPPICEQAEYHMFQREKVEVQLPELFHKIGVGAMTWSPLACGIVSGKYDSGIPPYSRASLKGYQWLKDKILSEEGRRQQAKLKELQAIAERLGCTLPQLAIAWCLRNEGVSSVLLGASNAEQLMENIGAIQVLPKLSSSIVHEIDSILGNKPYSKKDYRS
method_description: enhancers of rat Kvbeta2 NADPH turnover – biochemical, NADPH fluorescence, primary screen (AID 623);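 also: fluorescence intensity change per second fitted from 20 to 320 s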
particulars: Recombinant KvBeta, NADPH fluorescence decrease slope, 10 min; at 10 µM; stronger effect = lower value
endpoint_name: NADPH fluorescence slope
# answer = number (no unit)

Entry `CCOc1cc(-c2nc(-c3ccccc3OC)no2)cc(OCC)c1OCC` : NADPH fluorescence slope on Voltage-gated potassium channel subunit beta-2 (Rattus norvegicus) (UniProt P62483) = -4.7e-05

Entry `S=c1[nH]nc(Cc2ccccc2)n1Cc1ccco1` : NADPH fluorescence slope on Voltage-gated potassium channel subunit beta-2 (Rattus norvegicus) (UniProt P62483) = -7e-05

Entry `O=C(NC1CCCCC1)n1c(=O)oc2ccc(Cl)cc21` : NADPH fluorescence slope on Voltage-gated potassium channel subunit beta-2 (Rattus norvegicus) (UniProt P62483) = -3.6e-05

Entry `c1ccc(Cc2nn3c(Cn4cnc5ccccc54)nnc3s2)cc1` : NADPH fluorescence slope on Voltage-gated potassium channel subunit beta-2 (Rattus norvegicus) (UniProt P62483) = -5.6e-05

Entry `O=C(O)[C@@H]1CCCN1c1ncnc2sc3c(c12)CCC3` : NADPH fluorescence slope on Voltage-gated potassium channel subunit beta-2 (Rattus norvegicus) (UniProt P62483) = -2.3e-05

Entry `CCN(CC)c1ccc(/C=N/n2nnnc2N)c(O)c1` : NADPH fluorescence slope on Voltage-gated potassium channel subunit beta-2 (Rattus norvegicus) (UniProt P62483) = 6.9e-05
